Biological target: Phosphatidylinositol 5-phosphate 4-kinase type-2 alpha (Homo sapiens)
Assay: qHTS for Inhibitors of PI5P4K: Confirmation in Primary Assay; further: nearly all actives have a fitted effect of over 65% in size
Conditions: PI5P4Kalpha enzyme, ADP-Glo luminescence, 60 min; series mostly up to 76.9 µM
Description: In addition to finding PI5P, we discovered the type II phosphatidylinositol 5-phosphate 4-kinase (PI5P4K) family (alpha, beta, gamma isoforms) that catalyze the conversion of PI5P to PI(4,5)P2. Alternatively, PI(4,5)P2 can also be synthesized through phosphatidylinositol-4-phosphate (PI4P) by the type I phosphatidylinositol 4-phosphate 5-kinases (PI4P5K). […]
In all, about 1,100 compounds went through this assay and about 340 (31%) were called active. About 40% were inconclusive and are not listed. The call rests on the fitted dose curve; in most records, active means well fitted inhibition curve with a large enough effect; inconclusive means small, poorly fitted or top-dose-only effect; inactive means flat fitted curve, though single readings scatter. These entries were drawn from the full list.
Outcome codes: T for active, F for inactive

{"COMPOUND": "O=C(CN1CCN(c2ccccc2F)CC1)NCc1ccccc1", "CATEGORY": "F"}
{"COMPOUND": "COc1ccc(N(C(=O)c2ccccc2)S(=O)(=O)c2cccs2)cc1", "CATEGORY": "F"}
{"COMPOUND": "COc1ccc2nc(-c3ccco3)c(-c3ccco3)nc2c1", "CATEGORY": "T"}
{"COMPOUND": "O=C(Cn1cncn1)NCc1ccccc1Br", "CATEGORY": "F"}
{"COMPOUND": "O=C(Oc1ccc2c(c1)OCO2)c1cc2c(s1)CCC2", "CATEGORY": "T"}
{"COMPOUND": "CN(c1cccc(NC(=O)c2ccc(N(C)S(=O)(=O)c3ccccc3)cc2)c1)S(C)(=O)=O", "CATEGORY": "F"}
{"COMPOUND": "Nc1c(C(=O)O)cnc2c(-c3ccc(Cl)cc3)cnn12", "CATEGORY": "T"}
{"COMPOUND": "COc1ccc(NC(=O)CSc2nnc(-c3ccco3)c(-c3ccco3)n2)cc1OC", "CATEGORY": "F"}
{"COMPOUND": "Nc1nc(Nc2ccccc2)sc1C(=O)c1ccccc1", "CATEGORY": "T"}
{"COMPOUND": "CS(=O)(=O)c1ccc(C(=O)Nc2nc(-c3ccco3)c(-c3ccco3)s2)cc1", "CATEGORY": "F"}
{"COMPOUND": "Cc1csc(NC(=O)CSc2sc3c(O)cc(=O)[nH]c3c2C#N)n1", "CATEGORY": "T"}
{"COMPOUND": "CCCCC1=CC2=CC(=O)C(C)(OC(=O)C3CCCC3)C(=O)C2=CO1 (stereo not given)", "CATEGORY": "T"}
{"COMPOUND": "Cc1cc2nc(-c3ccco3)c(Cc3cccc(F)c3)n2c(C)c1Br", "CATEGORY": "T"}
{"COMPOUND": "Fc1cccc(Cc2c(-c3ccco3)nc3ccc(Cl)cn23)c1", "CATEGORY": "F"}
{"COMPOUND": "Cc1noc(C)c1C(=O)Nc1ccc(-n2ccc(C(F)(F)F)n2)cc1", "CATEGORY": "F"}
{"COMPOUND": "COc1ccc(CCn2c(O)cc3nn(-c4nc5ccccc5s4)c(=O)c-3c2C)cc1", "CATEGORY": "T"}
{"COMPOUND": "S=C(NCc1ccccc1)N1CCc2ccccc2C1", "CATEGORY": "F"}
{"COMPOUND": "O=c1c2ccccc2[nH]c2ccc(O)cc12", "CATEGORY": "T"}
{"COMPOUND": "O=C(CSc1ncnc2sc3c(c12)CCC3)N1CCOCC1", "CATEGORY": "F"}
{"COMPOUND": "Cc1ccc(CNc2ncnc3ccc(-c4ccc(CO)o4)cc23)o1", "CATEGORY": "F"}
{"COMPOUND": "COc1ccc(C(=O)c2sc(Nc3ccccc3F)nc2N)cc1", "CATEGORY": "T"}
{"COMPOUND": "COCCNC(=O)Nc1ccc2nc(-c3ccco3)c(-c3ccco3)nc2c1", "CATEGORY": "T"}
{"COMPOUND": "Cc1cccc(C)c1NC(=O)C(c1ccc(C(F)(F)F)cc1)n1c(=O)c(-c2ccco2)nc2ccccc21 (stereo not given)", "CATEGORY": "F"}
{"COMPOUND": "Nc1nc(Nc2ccccc2F)sc1C(=O)c1ccccc1", "CATEGORY": "T"}
{"COMPOUND": "NC(=O)c1ccc(-n2c(CCC(=O)O)ccc2-c2cccs2)cc1", "CATEGORY": "T"}
{"COMPOUND": "Cc1cc2nc(NC(=O)C3(C)CCN3C(=O)C(C)C)[nH]c2cc1C (stereo not given)", "CATEGORY": "F"}
{"COMPOUND": "CC(C)(C)c1ccc(NC(=O)C2=CC=CN3CCS(=O)(=O)N=C23)cc1", "CATEGORY": "F"}
{"COMPOUND": "O=C(NCc1ccc(F)cc1)C1CCN(c2cnccn2)CC1", "CATEGORY": "F"}
{"COMPOUND": "O=c1c2c3c(sc2[nH]c(=S)n1Cc1ccco1)CCC3", "CATEGORY": "T"}
{"COMPOUND": "O=C(Nc1ccccc1Cl)c1ccc2nccnc2c1", "CATEGORY": "F"}
{"COMPOUND": "NS(=O)(=O)c1ccc(CCNC(=O)c2ccc3nccnc3c2)cc1", "CATEGORY": "T"}
{"COMPOUND": "CCOc1ccc(NC(=O)N2CCC(n3nnc4ccccc43)CC2)cc1", "CATEGORY": "F"}
{"COMPOUND": "O=C(c1ccccc1)c1ccc2nc(-c3ccco3)c(-c3ccco3)nc2c1", "CATEGORY": "T"}
{"COMPOUND": "CC(C)(C)NC(=O)C(c1ccc(C#N)cc1)n1c(=O)c(-c2ccco2)nc2ccccc21 (stereo not given)", "CATEGORY": "F"}
{"COMPOUND": "Cc1cc(O)ccc1Nc1cc(-c2cccc(N(C)C)c2)ncn1", "CATEGORY": "T"}
{"COMPOUND": "O=C(O)c1cccc(NC(=O)c2cn(-c3ccccc3)nc2-c2cc3ccccc3o2)c1", "CATEGORY": "T"}
{"COMPOUND": "O=C(Nc1ccc(S(=O)(=O)Nc2nccs2)cc1)c1nn(-c2ccc(F)cc2)ccc1=O", "CATEGORY": "T"}
{"COMPOUND": "CN(Cc1cn(-c2ccccc2)nc1-c1cc2ccccc2o1)C(=O)CCC(=O)O", "CATEGORY": "F"}
{"COMPOUND": "COc1ccccc1Cc1c(-c2ccco2)nc2cc(C)c(Br)c(C)n12", "CATEGORY": "F"}
{"COMPOUND": "Oc1cc2c(cc1C(c1ccc(Cl)c(Cl)c1)N1CCCC1)OCO2 (stereo not given)", "CATEGORY": "T"}
{"COMPOUND": "CCCCNC(=O)c1ccc2nc(-c3ccco3)c(-c3ccco3)nc2c1", "CATEGORY": "T"}
{"COMPOUND": "COc1ccc(-c2nnn(CC(=O)N(CC(=O)NC3CCCC3)c3ccccc3)n2)cc1OC", "CATEGORY": "F"}
{"COMPOUND": "COc1ccc(CCCc2nnc(SCc3nc4ccccc4c(=O)[nH]3)n2C)cc1", "CATEGORY": "F"}
{"COMPOUND": "Cc1nnc(-c2ccccc2)nc1N(C)C", "CATEGORY": "F"}
{"COMPOUND": "CCOC(=O)c1cnc2cc(C)ccn2c1=O", "CATEGORY": "F"}

----------
Target: Phosphatidylinositol 5-phosphate 4-kinase type-2 alpha (Homo sapiens)
Experiment: qHTS for Inhibitors of PI5P4K: Confirmation in Primary Assay; further: nearly all actives have a fitted effect of over 65% in size
Settings: PI5P4Kalpha enzyme, ADP-Glo luminescence, 60 min; series mostly up to 76.9 µM
Source text: In addition to finding PI5P, we discovered the type II phosphatidylinositol 5-phosphate 4-kinase (PI5P4K) family (alpha, beta, gamma isoforms) that catalyze the conversion of PI5P to PI(4,5)P2. Alternatively, PI(4,5)P2 can also be synthesized through phosphatidylinositol-4-phosphate (PI4P) by the type I phosphatidylinositol 4-phosphate 5-kinases (PI4P5K). […]
Screen size: about 1,100 compounds; about 340 (31%) were called active. Inconclusive results (about 40%) are left out. The call rests on the fitted dose curve; in most records, active means well fitted inhibition curve with a large enough effect; inconclusive means small, poorly fitted or top-dose-only effect; inactive means flat fitted curve, though single readings scatter. The list is a sample of the results.
Labels: true = active, false = inactive

{"COMPOUND": "CN(CC(=O)Nc1cccc(F)c1)C(=O)c1cccc(-n2cccc2)c1", "CATEGORY": "true"}
{"COMPOUND": "COc1ccc(N2CC(O)=C(c3nc(-c4ccccc4)cs3)C2=N)cc1", "CATEGORY": "false"}
{"COMPOUND": "CCN(CC(=O)Nc1ccc(OC)cc1)C(=O)c1ccc([N+](=O)[O-])cc1", "CATEGORY": "false"}
{"COMPOUND": "O=C(CCS(=O)(=O)c1ccc2c(c1)NC(=O)CS2)NCCc1ccc(Cl)cc1", "CATEGORY": "false"}
{"COMPOUND": "CCN(CC)CCCCCC(=O)Nc1ccccc1C(=O)Nc1ccccc1", "CATEGORY": "false"}
{"COMPOUND": "CN(CC(=O)Nc1c(Cl)cccc1Cl)C(=O)c1cccc(-n2cccc2)c1", "CATEGORY": "true"}
{"COMPOUND": "Cc1ccc(S(=O)(=O)N2[C@@H](c3ccc(C(C)(C)C)cc3)C(C(=O)O)=CC[C@H]2c2ccc(C(C)C)cc2)cc1", "CATEGORY": "false"}
{"COMPOUND": "O=c1[nH]c2ccccc2n2c(-c3ccccc3)nnc12", "CATEGORY": "true"}
{"COMPOUND": "CC(C)N(CCC(=O)c1ccc2ccccc2c1)Cc1ccccc1", "CATEGORY": "false"}
{"COMPOUND": "O=C(c1ccco1)N1CCN(C(=O)c2ccc(-c3ccc([N+](=O)[O-])cc3)o2)CC1", "CATEGORY": "false"}
{"COMPOUND": "FC(F)(F)C1=Nc2cccc3cccc(c23)N1", "CATEGORY": "true"}
{"COMPOUND": "N#Cc1ccc(COC(=O)CC(NC(N)=O)c2ccc(Cl)cc2)cc1 (configuration not stated)", "CATEGORY": "false"}
{"COMPOUND": "Cc1oc(-c2ccc(Cl)cc2)cc1-c1nn2c(-c3ccoc3C)nnc2s1", "CATEGORY": "true"}
{"COMPOUND": "COc1cc(Br)cc(CNc2ccc(F)c([N+](=O)[O-])c2)c1O", "CATEGORY": "false"}
{"COMPOUND": "O=C(CSC1=NCCS1)NCc1ccco1", "CATEGORY": "false"}
{"COMPOUND": "O=S(=O)(Nc1nc(-c2ccccc2)cs1)c1cc(Cl)ccc1Cl", "CATEGORY": "true"}
{"COMPOUND": "CCOc1ccccc1N1CSC2=C(C#N)C(c3c(OC)ccc4ccccc34)CC(=O)N2C1 (configuration not stated)", "CATEGORY": "true"}
{"COMPOUND": "Cc1cccc(NC(=O)CNC(=O)c2cccc(-n3cccc3)c2)c1C", "CATEGORY": "true"}
{"COMPOUND": "Cc1ccc(NC(=O)CN(C)C(=O)c2cccc(-n3cccc3)c2)cc1", "CATEGORY": "true"}
{"COMPOUND": "O=C(O)c1ccc(Cl)c(S(=O)(=O)Nc2ccc3[nH]c(=O)[nH]c3c2)c1", "CATEGORY": "false"}
{"COMPOUND": "Cc1cccc2cc(CN(Cc3cccnc3)C(=S)NCCCN(C)C)c(=O)[nH]c12", "CATEGORY": "false"}
{"COMPOUND": "Cc1ccc(NC(=O)CN(C)C(=O)COc2ccc(C(=O)c3ccc(F)cc3)cc2)cc1", "CATEGORY": "false"}
